system: PYK2; construct: gene PTK2B; settings: concentration: 1 μM, replicates: in singlicate; n = 1;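 further: KINOMEscan kinase panel screen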
quantity name: %Inh (%)

INSERT INTO results (chemical_smiles, quantity_name, measured_number) VALUES
  ('CN(C)c1cc(-c2ccc3c(N)n[nH]c3c2)nc(N)n1', '%Inh', 0),
  ('O=C(NCCNc1ccnc(Nc2ccc(F)cc2)n1)Nc1ccc2c(c1)OCO2', '%Inh', 9),
  ('Cc1nnc(-c2ccc(C)c(-c3ccc(C(=O)O)cc3)c2)o1', '%Inh', 0),
  ('COc1ccc(-n2cnc3c(N)ncnc32)cc1', '%Inh', 0),
  ('COc1ccc(-c2coc3ccc(-c4nnc(SCc5cccc(C#N)c5)o4)cc23)cc1', '%Inh', 0);
